The origin of these recorded values is ChEMBL document CHEMBL4480367.

- System: Saccharomyces cerevisiae
- procedure text: Toxicity against yeast assessed as reduction in cell viability
- Type: organism-based
measure name: Activity

[
  {
    "molecule": "Cc1cc(CNS(=O)(=O)c2ccc([N+](=O)[O-])cc2)c(C)s1",
    "test target": "Saccharomyces cerevisiae",
    "Activity": "> 205.3 µM"
  },
  {
    "molecule": "N#Cc1ccc(S(=O)(=O)NCc2csc3ccccc23)cc1",
    "test target": "Saccharomyces cerevisiae",
    "Activity": "> 204 µM"
  },
  {
    "molecule": "O=S(=O)(NCc1csc2ccccc12)c1ccc(F)cc1",
    "test target": "Saccharomyces cerevisiae",
    "Activity": "133.8 µM"
  },
  {
    "molecule": "Cc1cc(CNS(=O)(=O)c2ccc(F)cc2)c(C)s1",
    "test target": "Saccharomyces cerevisiae",
    "Activity": "120.2 µM"
  },
  {
    "molecule": "Cc1cc(CNS(=O)(=O)c2ccc(Br)cc2)c(C)o1",
    "test target": "Saccharomyces cerevisiae",
    "Activity": "72.6 µM"
  }
]

[Q] Name the recorded Activity of the molecule listed here: "O=S(=O)(NCc1cc2ccccc2s1)c1ccc(C(F)(F)F)cc1"
[A] > 180.4 µM

[Q] Dear colleague, please send me the reported Activity for "O=S(=O)(NCc1csc2ccccc12)c1cccc(F)c1" when you can.
[A] > 208.5 µM

[Q] Entry NC12CC3CC(CC(C3)C1)C2 [AMANTADINE] needs its Activity filled in; supply it.
[A] > 443 µM

[Q] Using the record for "O=[N+]([O-])c1ccc(S(=O)(=O)NCc2cccs2)cc1" , state its measured Activity.
[A] 157.5 µM

[Q] For the molecule "O=S(=O)(NCc1cc2ccccc2s1)c1ccccc1F" , give its measured Activity value.
[A] > 180.5 µM

---

- procedure text: Cytotoxicity against MDCK cells assessed as reduction in cell viability after 24 hrs by MTT assay
- Type: cell-based, Canis lupus familiaris
- particulars: dog
Threshold check on CC50 at 24 h: strictly below 90 µM is true; on or above 90 µM is false.

Use these answered entries as a reference point.
[
  {
    "compound": "O=[N+]([O-])c1ccc(S(=O)(=O)NCc2csc3ccccc23)cc1",
    "group": "false"
  },
  {
    "compound": "Cc1cc(CNS(=O)(=O)c2ccc([N+](=O)[O-])cc2)c(C)o1",
    "group": "false"
  },
  {
    "compound": "Cc1cc(CNS(=O)(=O)c2ccc(C#N)cc2)c(C)s1",
    "group": "false"
  },
  {
    "compound": "O=S(=O)(NCc1csc2ccccc12)c1ccc(F)cc1",
    "group": "false"
  },
  {
    "compound": "Cc1cc(CNS(=O)(=O)c2ccc(C#N)cc2)c(C)o1",
    "group": "false"
  },
  {
    "compound": "NC12CC3CC(CC(C3)C1)C2",
    "group": "false"
  },
  {
    "compound": "Cc1ccc(S(=O)(=O)NCc2csc3ccccc23)cc1",
    "group": "false"
  },
  {
    "compound": "O=[N+]([O-])c1ccc(S(=O)(=O)NCc2ccoc2)cc1",
    "group": "false"
  },
  {
    "compound": "O=[N+]([O-])c1ccc(S(=O)(=O)NCc2ccc(Cl)s2)cc1",
    "group": "false"
  },
  {
    "compound": "O=[N+]([O-])c1ccc(S(=O)(=O)NCc2cccs2)cc1",
    "group": "false"
  }
]

[Q] Regarding "N#Cc1ccc(S(=O)(=O)NCc2csc3ccccc23)cc1" , kindly confirm whether its CC50 at 24 h is beneath 90 µM.
[A] false

[Q] Does the reported CC50 at 24 h of "Cc1cc(CNS(=O)(=O)c2ccc(F)cc2)c(C)o1" stay below 90 µM?
[A] false

[Q] Could you please tell me whether CC50 at 24 h recorded for "O=S(=O)(NCc1csc2ccccc12)c1ccc(Br)cc1" is less than 90 µM?
[A] true

[Q] Please check: CC50 at 24 h for "O=S(=O)(NCc1csc2ccccc12)c1ccc(C(F)(F)F)cc1" , strictly under 90 µM or not?
[A] false

[Q] is_below(CC50 at 24 h, 90 µM) for "Cc1cc(CNS(=O)(=O)c2ccc(Br)cc2)c(C)s1" ?
[A] true

[Q] Strictly below 90 µM in CC50 at 24 h? "O=S(=O)(NCc1cc2ccccc2s1)c1ccc(C(F)(F)F)cc1"
[A] false

[Q] In the record for "Cc1cc(CNS(=O)(=O)c2ccc(Cl)cc2)c(C)o1" , is CC50 at 24 h less than 90 µM?
[A] true

[Q] Please indicate whether the reported CC50 at 24 h of CCOC(=O)C1=C[C@@H](OC(CC)CC)[C@H](NC(C)=O)[C@@H](N)C1.O=P(O)(O)O [OSELTAMIVIR PHOSPHATE] is strictly below 90 µM.
[A] false

[Q] Lab note: confirm whether the reported CC50 at 24 h for this compound is below 90 µM, equality not counting. compound: "Cc1ccc(S(=O)(=O)NCc2cc3ccccc3s2)cc1"
[A] false

[Q] Is the reported CC50 at 24 h for "Cc1cc(CNS(=O)(=O)c2ccc(Cl)cc2)c(C)s1" strictly below 90 µM?
[A] true

[Q] Please indicate whether the reported CC50 at 24 h of "O=[N+]([O-])c1ccc(S(=O)(=O)NCc2cc3ccccc3s2)cc1" is strictly below 90 µM.
[A] false
